# TEST_DETAILS: qHTS assay to identify small molecule agonists of the TGF-beta/Smad signaling pathway (AID 1346859); further: on the % scale 0 is the no-effect control and ±100 the full control effect
# DETAILS: SBE-bla HEK293T, TGF-beta/Smad beta-lactamase reporter, 5 h; series mostly up to 76.8 µM
# Excerpt: U.S. Tox21 Program National Center for Advancing Translational Sciences [NCATS] NIH Chemical Genomics Center [NCGC] U.S. Environmental Protection Agency [EPA] National Institutes of Environmental Health Sciences [NIEHS] National Toxicology Program [NTP] U.S. Food and Drug Administration [FDA] […]
Results filed as inconclusive are left out. Active and inactive are the calls of the source. The call rests on the fitted dose curve; in most records, active means well fitted activation curve with a large enough effect in the signal ratio in the repeat runs (not every such curve was filed as active); inconclusive means weak or mixed curves; inactive means flat fitted curve, though single readings scatter; the % refers to the signal ratio.
MEASURED_METRIC: activation

COMPOUND: CC(C)=CCC[C@](C)(O)[C@@H]1CC=C(C)CC1
REPORTED_VALUE: inactive
//
COMPOUND: OCc1ccccc1O
REPORTED_VALUE: inactive
//
COMPOUND: O=C(O)c1ccccc1Nc1cc(Cl)ccc1C(=O)O
REPORTED_VALUE: -1.11% [at 15.8 µM] (inactive)
//
COMPOUND: CN(CC1(C)CCCO1)S(=O)(=O)c1ccc(Cl)c(S(N)(=O)=O)c1 (centres undefined)
REPORTED_VALUE: inactive
//
COMPOUND: O=C(O)[C@@H](O)[C@H](O)[C@H](O)[C@@H](O)C(=O)O
REPORTED_VALUE: inactive

Fill blank: measured activation of the compound COc1ccccc1OCC(O)COC(N)=O (centres undefined) is ____.
inactive

Fill blank: measured activation of the compound CC(C)NCC(O)COc1ccc(CCOCC2CC2)cc1 (centres undefined) is ____.
inactive

Fill blank: measured activation of the compound "COc1cc(N)c(Cl)cc1C(=O)NC1CCN(Cc2ccccc2)CC1" is ____.
inactive

Fill blank: measured activation of the compound "NNS(=O)(=O)c1ccc(Oc2ccc(S(=O)(=O)NN)cc2)cc1" is ____.
inactive

Fill blank: measured activation of the compound "CN(C)Cc1ccccc1" is ____.
inactive
